test system: OVCAR3 cells; assay: Cell Proliferation Activity Test (CyQUANT Direct), OVCAR3; format: cell-based; details: compound 0-10 µM, 3 days, 0.2% DMSO, CyQUANT fluorescence, read-out: OVCAR-3 _IC50_nM
pIC50: −log10 of the molar value.
property: pIC50

The cases that follow already have their pIC50 on record.
* Cc1cc2nc(n1)N1CCCC(C=CCC3CCN(CC3)c3cc(NS(=O)(=O)CCO)ccc3C(=O)N2)C1 (stereo not shown) [Example 1D] | 6.30
* Cc1cc2nc(n1)N1CCCC(C=CCC3CCN(CC3)c3cc(NS(=O)(=O)CCO)ccc3C(=O)N2)C1 (stereo not shown) [Example 1] | 7.85

1: Cc1cc2nc(n1)N1CCC(F)(F)C(CCCC3CCN(CC3)c3cc(NS(=O)(=O)CCO)ccc3C(=O)N2)C1 (stereo not shown) [Example 23A]
2: Cc1cc2nc(n1)N1CCC(F)(F)C(C=CCC3CCN(CC3)c3cc(NS(=O)(=O)CCO)ccc3C(=O)N2)C1 (stereo not shown) [Example 18]
Between the two listed entries 1 and 2 , which has its pIC50 at the higher number? Response format: the label of the selected entry. 2
(2: 7.51, 1: 6.18)
